Reported melting point values for the following compounds.

Worked cases, answers included:
compound="O=C1OCCC1NS(=O)(=O)c1ccc(Cl)cc1 (racemic)" property_name="melting point" measurement="113 to 115 °C"
compound="O=[N+]([O-])c1cccc(C(O)CN2CCNC2=S)c1 (stereo not drawn)" property_name="melting point" measurement="163 °C"
compound="CC12CCC(=O)C=C1CCC1C2=CCC2(C)C(C#N)=CCC12 (stereo not drawn)" property_name="melting point" measurement="148 to 150 °C"

Requested field: melting point. Item: `O=S(=O)(c1ccc2nccnc2c1)c1cccc2cnccc12` 187 to 189 °C

Find the recorded melting point belonging to `C=Cc1cc(Br)c(OC(C)=O)c(Br)c1` and report it. 76 °C

Which melting point value is on record for `CC(C)(C)C(=O)OCc1nc2cc3c(cc2c(=O)[nH]1)C(=O)CC3` ? 185 to 190 °C

Dear colleague, I am looking for the recorded melting point of the following compound: `COC(=O)c1ccsc1S(=O)(=O)Cl` 51 to 54 °C

Look up melting point for this compound: `COc1ncccc1NC(=O)Nc1ccc(N2CCN(C(=O)Nc3ccc(OCCO)cc3C(F)(F)F)CC2)cc1` 120 to 123 °C

# input compound: `COCCOCCCOc1ccc(/C=C/C(=O)O)c(Oc2ncc(C(F)(F)F)cc2Cl)c1` ; wanted: its melting point 103 to 104 °C

Query (compound): `COc1cccc([C@H]2O[C@H](CC(=O)Nc3cc(CCCCC(=O)O)ccc3F)C(=O)N(CC(C)(C)CO)c3ccc(Cl)cc32)c1OC` ; field requested: melting point 115 to 118 °C

What does the record list as melting point for `CCCn1c(CCOC)nc2c(N)nc3cc(OC4CCN(C(=O)OC(C)(C)C)CC4)ccc3c21` ? 173 to 175 °C

Name the recorded melting point for `CCCn1c(=O)c2c(N)n(CCCl)nc2n(Cc2ccccc2)c1=O` . 126 to 128 °C

Report melting point for `CCOC(=O)c1ccc(/C=C/c2ccc(O)c(C3(C)CCCCC3)c2)cc1` please. 149 °C

Using the record for `CSc1ccc(-c2nc(SC)c(C#N)c(=O)n2-c2ccc(C(C)(C)C)cc2)cc1` , report its melting point. 233 to 236 °C

# query: melting point of entry `C#Cc1ccnc(-c2cc(N)c(C#C[Si](C)(C)C)cc2[N+](=O)[O-])c1` 145 to 150 °C

What value of measured melting point is listed for `COc1cc2c3ccc(OC)c(OC)c3n(S(=O)(=O)c3ccccc3)c2cc1OC` ? 205 to 206 °C

Please report the recorded melting point for `CC(=O)OCCOCCN1CCC(CNC(=O)[C@@H]2CCCN2S(=O)(=O)c2ccc(Cl)c(COc3cccc4c(-n5ccnc5)cc(C)nc34)c2Cl)CC1` . 90 °C

# input compound: `COc1cccc(CN2CCC(c3cc(-c4ccc(Cl)cc4)[nH]n3)CC2)c1` ; wanted: its melting point 50 to 52 °C

Could you tell me which melting point is on file for `O=S1(=O)c2cccc3cccc(c23)N1CCCN1CCN(c2cccc(F)c2)CC1` ? 103 °C

What does the data say about its melting point? Entry: `Cc1c(NC(=O)c2ccc(-c3ccccc3)cc2F)ccc2cc(CN3CCCCC3)cnc12` 187 to 188 °C

melting point for CN(c1cc(OC(F)(F)F)cc2cc(C3=NCC(CC(N)=O)S3)[nH]c12)S(=O)(=O)c1cccs1 (stereo not drawn) ? 202 to 203 °C

Which value of melting point has been reported for `CCCCCCc1cc2c(cc1OCCCC(=O)O)C(=O)CCC2` in the records? 81 °C

* * *

# melting point listing for each entry below

compound=CC(C)(C)CC(C)(C)Nc1cc(Cl)ccc1[N+](=O)[O-] measurement="108 °C"
compound=CS(=O)(=O)c1ccc(-c2cnn(CC(F)(F)F)c(=O)c2OCC2CC2)cc1 measurement="133 to 135 °C"
compound=CNC(=O)c1cc(-c2cnn(C)c2)cc(F)c1Nc1nc(Cl)ncc1Cl measurement="220 to 221 °C"
compound=C[C@@H]1CCC[C@H](C)N1CCNc1ccnc2cc(Cl)ccc12 measurement="138 to 139 °C"
compound="N=C(N)NCc1ccc(OCCC2Oc3ccccc3N(Cc3ccccc3Cl)C2=O)cc1 (stereo not given)" measurement="180 to 182 °C"
compound=O=[N+]([O-])c1cc(Cl)ccc1N1CCc2cc(Cl)ccc21 measurement="130 to 133 °C"
compound=CS(=O)(=O)Oc1cc([N+](=O)[O-])c(F)cc1Cl measurement="64 to 65.5 °C"
compound=CC(=NNc1ccc(C2=NNC(=O)CC2)cc1)c1cnccn1 measurement="197 to 202 °C"

# melting point lookup, item `COCCOC(=O)Nc1cc(N2CC=CCC2)nc(N)n1` 136 °C

Look up melting point: `O=C(Nc1ccc2oc3c(c2c1)CCCC3)c1ccc(Cl)cc1` 214 °C

* * *

Entries annotated with measured melting point

molecule=Cc1nc(C(N)=O)c2n1-c1ccc(Cl)cc1C(c1ccccc1F)=NC2 measurement="300 to 305 °C"

Entry `FC(F)(F)c1cccc(N2CCN(CCCCNc3cc(-c4ccccc4)ccn3)CC2)c1` has what melting point? 120 °C

# input molecule: `COc1cc2c(cc1O)CCN(C(=O)c1ccc(OC)c(OC)c1)C2=O` ; wanted: its melting point 199 to 200 °C

Name the recorded melting point for `CCN(CC)C(=O)n1ccc(S(=O)(=O)c2cccc(Cl)c2Cl)n1` . 60 to 61.5 °C

Recorded melting point of CCCc1c(OCCCOc2cccc3c2CCCC3)ccc2c1OC(CCC(=O)O)(CCC(=O)N1CCCC1)CC2=O (centres undefined) , please. 160 to 164 °C

Could you share which melting point value was measured for `CN(C(=O)O)c1cccc(-c2ccnc3c(C(=O)c4cccs4)cnn23)c1` ? 215 to 217 °C

Quick check: melting point of `Clc1ccc(-c2ccc(C3=NC[C@H](c4ccccc4)O3)cc2)cc1` ? 122 °C

May I ask what melting point has been recorded for `CC(C)n1nc(-c2nc(Br)c(N)nc2-c2ccccc2)ccc1=O` ? 204 to 206 °C

Entry `CC(C)(C)c1cc(/C=C/c2nnc(S(C)(=O)=O)s2)cc(C(C)(C)C)c1O` has what melting point? 235 °C

* * *

Property name: melting point

molecule=CCc1nc(C)c(/C=C(\NC(=O)c2ccc(C(=O)NCc3cccc(O)c3)cc2Cl)C(=O)O)s1 measurement="> 200 °C"
molecule=Cc1cc(C)n(-c2nnc3cc(Cl)ccc3n2)n1 measurement="174 °C"
molecule="Nc1c(Cl)cc(C(O)CNCCCCCCOCCCc2ccc(C(=O)O)cc2)cc1Cl (stereo not drawn)" measurement="190 to 191 °C"

What measured melting point goes with `CCOC(=O)c1cn(C)c2cnc3cc(F)c(N4CCC(O)(c5cccc(C(F)(F)F)c5)CC4)cc3c2c1=O` ? 262 °C

So what's the measured melting point for this one? CC1CC2(NC(=O)NC2=O)c2cc(F)ccc2O1 (stereo not drawn) 233 to 235 °C

* * *

Property name: melting point

item_smiles=CC(C)C(=O)O[C@H]1[C@H](C)OC(=O)[C@@H](NC(=O)OC(C)(C)C)COC(=O)[C@@H]1CSc1ccccn1 measurement="54 to 58 °C"
item_smiles=Nc1cc(F)ccc1C(=O)NCc1ccc(Br)cc1F measurement="120 to 121 °C"
item_smiles=Fc1ccc(-n2c3c(c4cc(F)ccc42)CN(CCc2ccc4ccccc4n2)CC3)cc1 measurement="201 to 203 °C"
item_smiles=N#Cc1cc(F)c(N(CCO)CCO)c(F)c1 measurement="63 to 65 °C"
item_smiles=CCCCc1nc(C(=O)C(C)C)c(C#N)n1Cc1ccc(-c2ccccc2-c2nnnn2C(c2ccccc2)(c2ccccc2)c2ccccc2)cc1 measurement="115 to 116 °C"
item_smiles=CC1(C)CCC(=O)Nc2cc(OCCCCN3CCN(c4cccc(Cl)c4Cl)CC3)ccc21 measurement="106 to 108 °C"

Reported melting point for `Cc1[nH]c2ccc(CCN3CCCC3)cc2c1C(=O)OCc1ccccc1` : what is it? 76 to 78 °C

Item `CCOC(=O)c1nc(NC(C)=O)sc1Cc1ccc(SCC)cc1` has what recorded melting point? 190 °C

Quick check: melting point of `O=C1N[C@H]2OC=N[C@@]12c1ccccc1` ? 159 to 160 °C

* * *

Listed compounds paired with reported melting point

The following compounds have reported results that may help.
compound=N#Cc1cccc(C2=Nc3ccc(-c4ccc(-c5ccccc5)cc4)cc3NC(=O)C2)c1 measurement="251 to 253 °C"
compound=Cc1c(-c2ccc(F)cc2)n(Cc2ccc(OCCN3CCCCCC3)cc2)c2ccc(O)cc12 measurement="181 to 184 °C"
compound=O=c1cc(-c2ccccc2Cl)[nH]c(=O)n1-c1ccc(C(F)(F)F)cn1 measurement="281 to 283 °C"
compound="O=C(NC1CCCCC1)N1CCc2cc(S(=O)(=O)N3CC(c4ccccc4)NC3=O)ccc21 (stereo not given)" measurement="273 to 275 °C"
compound=Fc1ccc(-c2cccc(-c3cn([C@H]4CN5CCC4CC5)nn3)c2)cn1 measurement="164 °C"

Sample `CCOC(=O)c1c([N+](=O)[O-])c(C)nn1C` — what was its melting point? 47 to 48 °C

Recorded melting point of `O=C(O)CCCCCCCOc1nc(-c2ccccc2)c(-c2ccccc2)n1-c1ccccc1` , please. 158 to 159 °C

Suppose we examine the compound `CC#CCOc1cc2ncc(C#N)c(Nc3cc(OC)c(Cl)cc3Cl)c2cc1OC` ; what melting point value has been reported? 193 to 197 °C

# melting point lookup, item `COc1nc(NC(=O)NS(=O)(=O)c2ccccc2C(=O)OC(C)C)nc(OC)n1` 192 to 195 °C

Given CCOC(=O)C1=C(C)Nc2n[nH]cc2C1c1cccc2nonc12 (stereo not given) , state its recorded melting point. 228 °C

Return reported melting point; argument: COC(=O)CC(CNC(C)=O)c1cccc2ccc(OC)cc12 (stereo not given) 94 to 95 °C

Field request: melting point | item: `COCN(C(=O)CCl)c1c(OC)cccc1OC` 104 to 106 °C

Need melting point of `COC(=S)c1sc(C)c(N)c1N` , thanks. 95 to 97 °C

Form field: reported melting point of O=C1CCC(N2C(=O)c3cccc(CNC(=O)Nc4ccc(Cl)c(Cl)c4)c3C2=O)C(=O)N1 (stereo not given) 241 to 243 °C

Entry under review: `O=C(C=Cc1ccc(-c2ccc(O)cc2)cc1)NO` . Reported melting point? > 300 °C

Any idea what melting point was measured for `Cc1[nH]cnc1CSCCNC1=C([N+](=O)[O-])CN(Cc2ccccc2)CN1` ? 177 to 180 °C

Given the entry `O=C(Nc1cccc(C(F)(F)F)c1F)c1ccccc1[N+](=O)[O-]` , report its measured melting point. 156 to 157 °C

Any idea what its melting point is? The compound is `O=Nc1c(-c2ccccc2)nc2sccn12` 175 to 177 °C

Given the entry `Oc1cc(-c2c(F)c(F)c(F)c(F)c2F)nn1-c1ccccc1` , report its measured melting point. 149 to 151 °C

Fill blank: measured melting point of the compound O=C(NC1CCCc2ccccc21)c1ccc2n1Cc1ccccc1N(C(=O)CSc1ccc(Br)cc1)C2 (stereo not given) is ____. 163 to 165 °C
